Test: amyloid nucleation score (Sup35N fusion, yeast selection) (log enrichment); library NNK1; higher = more nucleation; inactive = no reads after selection;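 also: zero at mode of non-aggregating sequences after 7 days selection at 30°C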
Would you please tag the item Satisfied when its amyloid nucleation score is 0.8 or above, and Not satisfied when it is below?

QUERY_SEQUENCE: SDERKGPGYPSMITSWQGGS
GROUP: Not satisfied

QUERY_SEQUENCE: FQHTLGRKA
GROUP: Not satisfied

QUERY_SEQUENCE: YSDSMTIKRDSLWVIGTLEL
GROUP: Satisfied

QUERY_SEQUENCE: IIWRDNNTPYD
GROUP: Satisfied

QUERY_SEQUENCE: YSEFRDSLRSGIPLVPFVIQ
GROUP: Not satisfied

QUERY_SEQUENCE: WNPYPTCSYSPFATSGDSAF
GROUP: Not satisfied

QUERY_SEQUENCE: FFRVLFFTFLAWYVELKWQL
GROUP: Not satisfied

QUERY_SEQUENCE: PYFDTEHERVKDH
GROUP: Not satisfied

stdin: For this sequence, is measured amyloid nucleation score 0.8 or higher? CRNLFMWDIRRGKYITARKK
stdout: Not satisfied

stdin: For this sequence, is measured amyloid nucleation score 0.8 or higher? QHWNGTNNMILYYFPRPSAR
stdout: Satisfied

stdin: For this sequence, is measured amyloid nucleation score 0.8 or higher? HSVSRCLVNEGNGFSFCKDP
stdout: Satisfied

stdin: For this sequence, is measured amyloid nucleation score 0.8 or higher? SRISMVMVLSLFSVKFRWNP
stdout: Not satisfied

stdin: For this sequence, is measured amyloid nucleation score 0.8 or higher? APHWLLRDPIESTADNDVYY
stdout: Satisfied
